Below, each entry is listed alongside its reported viability at 28.5 h, 10 µM.
experiment: in vitro; conditions: human, hela cells, % viability
Field: numeric (%). Do not append units.

NS(=O)(=O)c1ccc(CNC(=O)c2cc(-c3cccnc3)nc3ccc(Cl)cc23)cc1 :: 83.8
NS(=O)(=O)c1ccc(NC(=O)/C(=C/c2ccc(Br)cc2)NC(=O)c2ccccc2)cc1 :: 105
O=[N+]([O-])c1ccc(Cl)c(C2N(Cc3ccccc3)CCN2Cc2ccccc2)c1 :: 93.4
Nc1cccc(-c2cc(Nc3cccc(OCc4ccccc4)c3)ncn2)c1 :: 113

Now examine the next entry.
Request: Provide only the value of recorded viability at 28.5 h, 10 µM for NC(=O)c1ccccc1NC(=O)CCCN1C(=O)CCC1=O
Response: 94.1
